This collection of values is drawn from patent US6723753B2.

- study.system: UniProtKB P11597
- Sequence (P11597 18-493): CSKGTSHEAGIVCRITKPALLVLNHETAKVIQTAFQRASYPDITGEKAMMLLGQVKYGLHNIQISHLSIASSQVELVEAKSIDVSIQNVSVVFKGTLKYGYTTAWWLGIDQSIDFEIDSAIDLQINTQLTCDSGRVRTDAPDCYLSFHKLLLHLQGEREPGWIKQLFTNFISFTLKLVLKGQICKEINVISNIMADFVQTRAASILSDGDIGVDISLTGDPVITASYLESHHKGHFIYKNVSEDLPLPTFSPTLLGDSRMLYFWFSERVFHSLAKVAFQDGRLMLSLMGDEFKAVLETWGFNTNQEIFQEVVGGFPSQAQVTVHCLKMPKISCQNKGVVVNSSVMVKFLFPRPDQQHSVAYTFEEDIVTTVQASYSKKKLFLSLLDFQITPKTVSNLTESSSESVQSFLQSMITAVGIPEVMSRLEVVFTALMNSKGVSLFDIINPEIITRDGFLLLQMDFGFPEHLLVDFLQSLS
- experiment.description: Assay of CETP Inhibition using Purified Components (Reconstituted Buffer Assay)
- Assay type: biochemical
- Parameters: made in house; host or cells: CHO cells (serum-free conditioned medium)
- cond: Inhibition of CETP activity in reconstituted buffer assay; transfer of [3H]CE from HDL to LDL; read-out: IC50
assay.endpoint: IC50 (µM)

Take a look at these entries with their results.
The compound CC(C)(C)c1ccc(-c2cccc(N(Cc3cccc(OC(F)(F)C(F)F)c3)CC(O)C(F)(F)F)c2)cc1 (centres unmarked) , tested on UniProtKB P11597, showed IC50 of 18

Entry O=C(c1cccc(N(Cc2cccc(OC(F)(F)C(F)F)c2)CC(O)C(F)(F)F)c1)N1CCCCC1 (centres unmarked) , UniProtKB P11597 data, IC50 value: 9.2

I: OC(CN(Cc1cccc(OC(F)(F)F)c1)c1ccc2ccccc2c1)C(F)(F)F (centres unmarked)
II: OC(CN(CCc1cccc(F)c1)Cc1cccc(OC(F)(F)C(F)F)c1)C(F)(F)F (centres unmarked)
III: OC(CN(Cc1cccc(OC(F)(F)C(F)F)c1)c1cccc(OCc2ccc(OC(F)F)cc2)c1)C(F)(F)F (centres unmarked)
IV: Cc1cccc(N(Cc2ccc(OC(F)(F)F)cc2)CC(O)C(F)(F)F)c1 (centres unmarked)
Sequence the entries by IC50, beginning with the highest number. Lab note: record answer as labels in requested order.
IV, II, I, III

---

- study.system: CETP (Homo sapiens)
- Sequence (P11597 18-493): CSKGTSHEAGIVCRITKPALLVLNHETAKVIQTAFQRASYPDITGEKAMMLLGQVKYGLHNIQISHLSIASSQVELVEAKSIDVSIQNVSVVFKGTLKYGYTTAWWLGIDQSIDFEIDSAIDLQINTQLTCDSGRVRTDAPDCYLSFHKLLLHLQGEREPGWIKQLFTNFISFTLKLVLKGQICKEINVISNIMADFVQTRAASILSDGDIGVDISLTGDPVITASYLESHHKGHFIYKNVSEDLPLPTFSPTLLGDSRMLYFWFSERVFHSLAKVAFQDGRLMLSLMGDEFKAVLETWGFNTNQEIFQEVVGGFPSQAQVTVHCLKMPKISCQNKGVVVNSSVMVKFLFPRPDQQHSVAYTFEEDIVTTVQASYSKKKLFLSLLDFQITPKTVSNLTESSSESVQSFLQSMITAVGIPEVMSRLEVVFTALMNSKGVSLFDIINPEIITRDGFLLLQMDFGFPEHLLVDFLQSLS
- experiment.description: Assay of CETP Inhibition using Purified Components (Reconstituted Buffer Assay)
- Type: biochemical
- Design: made in house; host or cells: CHO cells (serum-free conditioned medium)
- cond: Inhibition of CETP activity in reconstituted buffer assay; transfer of [3H]CE from HDL to LDL; read-out: IC50
assay.endpoint: IC50

Record COc1ccccc1N(Cc1ccc(C)cc1)CC(O)C(F)(F)F (stereo not shown) [Example 667] , field IC50: > 100 µM

Noted for O=[N+]([O-])c1cc(Cl)ccc1CN(CC(O)C(F)(F)F)c1cccc(Oc2ccccc2)c1 (stereo not shown) [Example 684] : its IC50 reads > 100 µM

Record Cc1cccc(S(=O)(=O)Nc2cccc(N(Cc3cccc(OC(F)(F)C(F)F)c3)CC(O)C(F)(F)F)c2)c1 (stereo not shown) [Example 530] , field IC50: > 50 µM

Next:
Entry COc1cccc(CN(CC(O)C(F)(F)F)c2cccc(OC(F)(F)F)c2)c1 (stereo not shown) [Example 121] — recorded IC50 = > 100 µM

---

// reported IC50 for each item listed
- study.system: CETP (Homo sapiens)
- experiment.description: Assay of CETP Inhibition using Purified Components (Reconstituted Buffer Assay)
- Type: biochemical
- Set-up: made in house; host or cells: CHO cells (serum-free conditioned medium)
- cond: Inhibition of CETP activity in reconstituted buffer assay; transfer of [3H]CE from HDL to LDL; read-out: IC50

CETP (Homo sapiens) data for O=C(Nc1cccc(N(Cc2cccc(OC(F)(F)C(F)F)c2)CC(O)C(F)(F)F)c1)c1cccnc1 (stereo not shown) [Example 539] ; its IC50: > 50 µM

Reading of IC50 for CS(=O)(=O)c1ccc(S(=O)(=O)c2cccc(N(Cc3cccc(OC(F)(F)C(F)F)c3)CC(O)C(F)(F)F)c2)cc1 (stereo not shown) [Example 487] with CETP (Homo sapiens): > 50 µM

So the reported IC50 for OC(CN(Cc1cccc(OC(F)(F)C(F)F)c1)c1cccc(Oc2cc(F)ccn2)c1)C(F)(F)F (stereo not shown) [Example 443] , on CETP (Homo sapiens), turned out to be > 50 µM

Log: CETP (Homo sapiens), compound O=C(NCc1ccccc1)c1cccc(N(Cc2cccc(OC(F)(F)C(F)F)c2)CC(O)C(F)(F)F)c1 (stereo not shown) [Example 465] , IC50 = > 50 µM

Record OC(CN(Cc1cccc(Oc2ccc(Cl)cc2)c1)c1cccc(F)c1)C(F)(F)F (stereo not shown) [Example 676] has CETP (Homo sapiens) IC50 equal to > 100 µM

Entry OC(CN(Cc1cccc(C(F)(F)F)c1)Cc1ccccc1F)C(F)(F)F (stereo not shown) [compound 184] , CETP (Homo sapiens) data, IC50 value: > 100 µM

Continuing:
Measured IC50 for this entry Cc1cccc(CN(CC(O)C(F)(F)F)c2cccc(F)c2F)c1 (stereo not shown) [Example 678] on CETP (Homo sapiens): > 100 µM

Item: O=C(Nc1cccc(N(Cc2cccc(OC(F)(F)C(F)F)c2)CC(O)C(F)(F)F)c1)Nc1cccc(C(F)(F)F)c1 (stereo not shown) [Example 548] | System: CETP (Homo sapiens) | IC50: > 50 µM

CETP (Homo sapiens) data for CC(c1cccc(OC(F)(F)F)c1)N(CC(O)C(F)(F)F)c1cccc(Oc2ccccc2)c1 (stereo not shown) [Example 206] ; its IC50: > 100 µM

Bench note, CETP (Homo sapiens): entry CCCN(C)C(=O)c1cccc(CN(CC(O)C(F)(F)F)c2cccc(Oc3ccccc3)c2)c1 (stereo not shown) [compound 614] , its IC50 = > 100 µM

Form field, IC50 with CETP (Homo sapiens), item O=[N+]([O-])c1ccc(CN(CC(O)C(F)(F)F)c2cccc(OC(F)(F)F)c2)cc1 (stereo not shown) [Example 331] : > 100 µM

Recorded IC50 for OC(CN(CCc1c[nH]c2ccccc12)c1cccc(OC(F)(F)F)c1)C(F)(F)F (stereo not shown) [Example 344] on CETP (Homo sapiens) was > 100 µM

Entry COc1cccc(NC(=O)Nc2cccc(N(Cc3cccc(OC(F)(F)C(F)F)c3)CC(O)C(F)(F)F)c2)c1 (stereo not shown) [Example 547] , tested on CETP (Homo sapiens), has a reported IC50 of > 50 µM

---

- study.system: CETP (Homo sapiens, UniProt P11597)
- experiment.description: Assay of CETP Inhibition using Purified Components (Reconstituted Buffer Assay)
- Format: biochemical
- Set-up: made in house; host or cells: CHO cells (serum-free conditioned medium)
- cond: Inhibition of CETP activity in reconstituted buffer assay; transfer of [3H]CE from HDL to LDL; read-out: IC50
assay.endpoint: IC50 (µM)

Looking up OC(CN(Cc1cccc(OC(F)(F)C(F)F)c1)c1cccc(Oc2ccc(C3CCCC3)cc2)c1)C(F)(F)F (centres unmarked) , I see its IC50 listed as 2.2

P: OC(CN(Cc1cccc(OC(F)(F)C(F)F)c1)c1cccc(Cc2ccc(F)cc2)c1)C(F)(F)F (centres unmarked)
Q: OC(CN(Cc1cccc(OC(F)(F)C(F)F)c1)c1cccc(Nc2ccccc2)c1)C(F)(F)F (centres unmarked)
R: COc1cccc(CN(CC(O)C(F)(F)F)c2cccc(OC)c2)c1 (centres unmarked)
S: OC(CN(Cc1cccc(OC(F)(F)C(F)F)c1)c1cccc(-c2ccc(F)cc2)c1)C(F)(F)F (centres unmarked)
// sort entries: IC50, high to low # answer = labels listed in requested order
R, P, S, Q
(R: 90 µM, P: 2.5 µM, S: 1.4 µM, Q: 0.88 µM)
